target: Cyclin-dependent kinase 4/cyclin D1 (Homo sapiens) (UniProt P11802+P24385); experiment: Inhibition of full length human recombinant N-terminal GST-tagged CDK4/Cyclin D1 expressed in baculovirus infected sf9 cells using RB-CTF as substrate at 100 uM incubated for 10 mins by scintillation counting method relative to control
inhibition: recorded values
Your answer is read as %, so omit the unit and give the number.

Examples with their reported inhibition follow.
>  <STRUCTURE SMILES STRING>
Cc1cc(N/N=C/c2ccc(O)cc2)nc2ccccc12

>  <MEASUREMENT TARGET>
Cyclin-dependent kinase 4/cyclin D1 (Homo sapiens) (UniProt P11802+P24385)

>  <UNIT OF MEASUREMENT>
%

>  <inhibition>
16

$$$$
>  <STRUCTURE SMILES STRING>
C/C(=N\Nc1ccc2ccccc2n1)c1ccccc1O

>  <MEASUREMENT TARGET>
Cyclin-dependent kinase 4/cyclin D1 (Homo sapiens) (UniProt P11802+P24385)

>  <UNIT OF MEASUREMENT>
%

>  <inhibition>
7

$$$$
>  <STRUCTURE SMILES STRING>
COc1ccc(/C=N/Nc2cc(C)c3ccccc3n2)cc1

>  <MEASUREMENT TARGET>
Cyclin-dependent kinase 4/cyclin D1 (Homo sapiens) (UniProt P11802+P24385)

>  <UNIT OF MEASUREMENT>
%

>  <inhibition>
9

$$$$

Please examine the following record next.
Query: inhibition; subject: COc1ccc(-c2nnc3c(NCCN4CCOCC4)cccn23)cc1OC 10

###

ID50: recorded values
biological target: Leucine-rich repeat serine/threonine-protein kinase 2 (Homo sapiens); experiment: Inhibition of human recombinant N-terminal GST-tagged LRRK2 (968 residues) expressed in baculovirus infected sf9 cells using LRRKtide as substrate incubated for 10 mins by scintillation counting method in presence of [gamma33P]ATP

>  <STRUCTURE SMILES STRING>
C/C(=N\Nc1ccc2ccccc2n1)c1ccccc1O

>  <ATTRIBUTE MEASURED>
ID50

>  <ASSAY RESULT>
32.6 µM

$$$$
>  <STRUCTURE SMILES STRING>
Cc1cc(N/N=C/c2ccc(O)cc2)nc2ccccc12

>  <ATTRIBUTE MEASURED>
ID50

>  <ASSAY RESULT>
2.7 µM

$$$$
>  <STRUCTURE SMILES STRING>
COc1ccc(/C=N/Nc2cc(C)c3ccccc3n2)cc1

>  <ATTRIBUTE MEASURED>
ID50

>  <ASSAY RESULT>
3 µM

$$$$

Please examine the following record next.
Query: ID50; subject: COc1ccc(-c2nnc3c(NCCN4CCOCC4)cccn23)cc1OC 32 µM

###

Ki: recorded values
target: Leucine-rich repeat serine/threonine-protein kinase 2 (Homo sapiens, UniProt Q5S007, G2019S); assay: Mixed type inhibition of human recombinant GST-tagged LRRK2 G2019S mutant (970 residues) expressed in baculovirus expression system assessed as enzyme-inhibitor complex by Michaelis-Menten kinetics in presence of varying level of ATP
Sequence (Q5S007 whole entry G2019S): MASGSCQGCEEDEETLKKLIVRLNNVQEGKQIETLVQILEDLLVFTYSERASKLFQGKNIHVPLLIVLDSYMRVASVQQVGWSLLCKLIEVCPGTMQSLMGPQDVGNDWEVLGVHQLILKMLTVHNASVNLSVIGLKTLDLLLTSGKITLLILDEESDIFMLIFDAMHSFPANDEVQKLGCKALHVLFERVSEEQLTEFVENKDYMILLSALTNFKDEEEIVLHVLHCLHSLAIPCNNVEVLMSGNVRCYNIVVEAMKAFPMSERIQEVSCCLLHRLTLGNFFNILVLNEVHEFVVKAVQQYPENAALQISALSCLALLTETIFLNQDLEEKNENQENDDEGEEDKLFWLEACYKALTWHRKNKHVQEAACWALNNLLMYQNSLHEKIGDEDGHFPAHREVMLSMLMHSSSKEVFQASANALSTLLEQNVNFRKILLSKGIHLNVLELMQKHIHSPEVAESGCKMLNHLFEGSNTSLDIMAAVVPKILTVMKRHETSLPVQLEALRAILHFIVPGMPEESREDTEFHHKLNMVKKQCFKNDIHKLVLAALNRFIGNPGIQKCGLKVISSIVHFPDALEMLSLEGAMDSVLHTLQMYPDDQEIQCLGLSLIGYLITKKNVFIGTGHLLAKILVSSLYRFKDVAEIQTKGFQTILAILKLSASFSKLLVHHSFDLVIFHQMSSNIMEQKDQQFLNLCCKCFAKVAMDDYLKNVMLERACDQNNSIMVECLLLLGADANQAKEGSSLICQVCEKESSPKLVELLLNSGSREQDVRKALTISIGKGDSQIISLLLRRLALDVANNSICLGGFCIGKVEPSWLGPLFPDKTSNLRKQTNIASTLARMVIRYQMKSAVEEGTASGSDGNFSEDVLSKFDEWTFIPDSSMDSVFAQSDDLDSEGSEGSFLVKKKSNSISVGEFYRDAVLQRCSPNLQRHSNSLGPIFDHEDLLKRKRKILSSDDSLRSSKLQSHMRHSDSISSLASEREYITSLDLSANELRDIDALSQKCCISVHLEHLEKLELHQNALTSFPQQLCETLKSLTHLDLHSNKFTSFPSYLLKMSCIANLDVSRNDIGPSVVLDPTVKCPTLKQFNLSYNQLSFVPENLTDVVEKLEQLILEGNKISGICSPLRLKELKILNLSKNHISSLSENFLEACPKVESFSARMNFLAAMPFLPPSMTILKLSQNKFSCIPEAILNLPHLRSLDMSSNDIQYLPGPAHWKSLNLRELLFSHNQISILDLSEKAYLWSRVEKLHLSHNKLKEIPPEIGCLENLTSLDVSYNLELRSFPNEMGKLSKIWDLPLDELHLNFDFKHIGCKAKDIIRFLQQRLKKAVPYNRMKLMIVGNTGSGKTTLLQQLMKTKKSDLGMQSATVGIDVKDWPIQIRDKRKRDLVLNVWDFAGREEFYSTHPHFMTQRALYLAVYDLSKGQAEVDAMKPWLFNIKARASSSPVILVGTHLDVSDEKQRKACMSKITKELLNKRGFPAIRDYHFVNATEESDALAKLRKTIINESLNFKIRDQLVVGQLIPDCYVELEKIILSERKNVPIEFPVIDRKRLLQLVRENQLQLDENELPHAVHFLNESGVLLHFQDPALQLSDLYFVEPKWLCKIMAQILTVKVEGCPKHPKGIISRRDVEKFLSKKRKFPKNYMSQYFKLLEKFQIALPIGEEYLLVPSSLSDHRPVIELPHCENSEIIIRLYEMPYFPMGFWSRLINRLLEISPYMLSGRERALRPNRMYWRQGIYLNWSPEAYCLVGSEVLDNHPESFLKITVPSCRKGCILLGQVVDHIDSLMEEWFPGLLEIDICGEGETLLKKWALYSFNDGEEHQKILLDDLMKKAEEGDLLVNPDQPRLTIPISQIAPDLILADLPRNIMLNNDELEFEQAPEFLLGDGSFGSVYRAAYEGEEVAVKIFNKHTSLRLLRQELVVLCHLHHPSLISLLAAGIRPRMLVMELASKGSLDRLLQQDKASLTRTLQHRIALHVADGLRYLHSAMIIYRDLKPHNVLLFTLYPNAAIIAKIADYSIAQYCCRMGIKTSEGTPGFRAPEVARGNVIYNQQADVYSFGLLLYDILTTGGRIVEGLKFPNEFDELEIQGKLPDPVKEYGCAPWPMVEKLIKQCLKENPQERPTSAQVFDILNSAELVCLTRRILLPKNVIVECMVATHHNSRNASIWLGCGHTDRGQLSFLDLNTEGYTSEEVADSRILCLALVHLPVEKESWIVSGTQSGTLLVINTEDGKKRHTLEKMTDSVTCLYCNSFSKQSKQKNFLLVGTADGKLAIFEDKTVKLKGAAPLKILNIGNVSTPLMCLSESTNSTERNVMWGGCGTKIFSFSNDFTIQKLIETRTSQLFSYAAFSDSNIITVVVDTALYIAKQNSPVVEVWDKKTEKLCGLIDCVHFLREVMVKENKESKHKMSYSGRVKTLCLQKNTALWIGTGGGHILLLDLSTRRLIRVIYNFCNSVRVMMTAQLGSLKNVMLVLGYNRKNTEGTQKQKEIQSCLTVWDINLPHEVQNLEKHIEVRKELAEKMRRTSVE
Your answer is read as nM, so omit the unit and give the number.

Query: Ki; subject: C/C(=N\Nc1ccc2ccccc2n1)c1ccccc1O 3450

Item: COc1ccc(/C=N/Nc2cc(C)c3ccccc3n2)cc1 740

Item: Cc1cc(N/N=C/c2ccc(O)cc2)nc2ccccc12 550

The reported measurements were obtained from ChEMBL document CHEMBL3797082.
